- Test target: Coagulation factor X (Homo sapiens, UniProt P00742)
- Sequence (P00742 41-179 limits assumed): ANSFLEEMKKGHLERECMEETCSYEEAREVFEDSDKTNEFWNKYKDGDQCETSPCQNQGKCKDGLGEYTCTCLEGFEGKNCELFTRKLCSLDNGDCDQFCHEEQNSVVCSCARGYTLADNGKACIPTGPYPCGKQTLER
- Sequence (P00742 235-488 limits assumed): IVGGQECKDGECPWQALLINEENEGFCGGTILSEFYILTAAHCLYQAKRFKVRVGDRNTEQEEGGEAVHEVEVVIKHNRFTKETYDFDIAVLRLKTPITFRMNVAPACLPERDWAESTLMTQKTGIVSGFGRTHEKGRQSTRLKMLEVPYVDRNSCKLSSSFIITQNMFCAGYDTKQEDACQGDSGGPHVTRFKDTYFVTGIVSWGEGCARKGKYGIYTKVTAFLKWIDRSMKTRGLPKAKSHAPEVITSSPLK
pIC50: −log10 of the molar value.
Observed property: pIC50

// compound CC(C)(C)NC(=O)N1CCN(C(=O)N2C(=O)[C@H](CC3CCNCC3)[C@H]2C(=O)O)CC1 , assay Coagulation factor X (Homo sapiens, UniProt P00742), pIC50 value: < 5.96

====

# key: entry, value: IC50
- Test target: Tryptase (Homo sapiens, UniProt Q9BZJ3+Q15661+Q9NRR2)
- Assay protocol: Inhibitory activity against human tryptase
// return numeric value only (unit: nM, not printed)

# annotated cases, reported IC50 shown
O=C(O)C1[C@@H](CC2CCNCC2)C(=O)N1C(=O)N1CCN(C(=O)CCCc2nc(-c3ccc(Cl)cc3)no2)CC1 (single isomer, unassigned): 5
O=C(O)C1[C@@H](CC2CCNCC2)C(=O)N1C(=O)N1CCN(C(=O)c2ccc(C3CCCCC3)cc2)CC1 (single isomer, unassigned): 40
O=C(O)C1[C@@H](CC2CCNCC2)C(=O)N1C(=O)N1CCN(C(=O)CCCCCCCc2ccccc2)CC1 (single isomer, unassigned): 5

The compound Cc1ccc(C2=CN=C(CCC(=O)N3CCN(C(=O)N4C(=O)[C@H](CC5CCNCC5)C4C(=O)O)CC3)C2=O)cc1 (single isomer, unassigned) on Tryptase (Homo sapiens, UniProt Q9BZJ3+Q15661+Q9NRR2): IC50 was 5

The reported IC50 value, Tryptase (Homo sapiens, UniProt Q9BZJ3+Q15661+Q9NRR2), for COc1cccc(CCC(=O)N2CCN(C(=O)N3C(=O)[C@H](CC4CCNCC4)C3C(=O)O)CC2)c1 (single isomer, unassigned) reads 14

Measured IC50 (Tryptase (Homo sapiens, UniProt Q9BZJ3+Q15661+Q9NRR2)), entry O=C(O)C1[C@@H](CC2CCNCC2)C(=O)N1C(=O)N1CCN(C(=O)c2ccc(-c3ccccc3)cc2)CC1 (single isomer, unassigned) : 6

====

- Test target: Tryptase (Homo sapiens, UniProt Q9BZJ3+Q15661+Q9NRR2)
- Assay protocol: Inhibitory activity against human tryptase
Observed property: log10 IC50 (log10 of the value in µM)
In plain terms, each number is the log10 of measured IC50 in µM.

# example entries with known answers
O=C(O)C1[C@@H](CC2CCNCC2)C(=O)N1C(=O)N1CCN(C(=O)Cc2ccc(OCc3ccccc3)cc2)CC1 (single isomer, unassigned): -3.00
CC1=NN(c2ccc(C(=O)N3CCN(C(=O)N4C(=O)[C@H](CC5CCNCC5)C4C(=O)O)CC3)cc2)C(=O)C1 (single isomer, unassigned): -0.42
Cc1onc(-c2ccccc2)c1C(=O)N1CCN(C(=O)N2C(=O)[C@H](CC3CCNCC3)C2C(=O)O)CC1 (single isomer, unassigned): -0.54
O=C(CCC(=O)N1CCN(C(=O)N2C(=O)[C@H](CC3CCNCC3)C2C(=O)O)CC1)NCCc1ccccc1 (single isomer, unassigned): -1.77
O=C(O)C1[C@@H](CC2CCNCC2)C(=O)N1C(=O)N1CCN(C(=O)c2cc3cc(F)ccc3[nH]2)CC1 (single isomer, unassigned): -0.35

Per the record, O=C(O)C1[C@@H](CC2CCNCC2)C(=O)N1C(=O)N1CCN(C(=O)Cc2cccc(Oc3ccccc3)c2)CC1 (single isomer, unassigned) has log10 IC50 of -1.77

Note to self: log10 IC50 recorded for O=C(O)C1[C@@H](CC2CCNCC2)C(=O)N1C(=O)N1CCN(C(=O)CCCC2CCCCC2)CC1 (single isomer, unassigned) was -1.62
